- Method: Accelerated stability of levamisole (and its p-bromo analogue) in various buffers; functional amount measured by inhibition of bovine liver AP
- Condition parameters: amp buffer, pH 9.8
- Protocol: Various buffers were prepared at 100 mM concentrations, containing 1 mM magnesium chloride, and adjusted to pH 9.8. […] (accelerated decomposition study). […] Bovine liver AP was added and the reaction kinetics were followed at 405 nm.
Experimental readout: remaining at 408 h, 100 µM (%)
Numbers only, in %.

Challenge: Any idea what its remaining at 408 h, 100 µM is? The compound is `Brc1ccc([C@H]2CN3CCSC3=N2)cc1`
Response given: 9.6

====

- Method: Accelerated stability of levamisole (and its p-bromo analogue) in various buffers; functional amount measured by inhibition of bovine liver AP
- Condition parameters: carbonate buffer, pH 9.8
Experimental readout: remaining at 72 h, 1000 µM (%)
One number for each entry, in %.

Challenge: // remaining at 72 h, 1000 µM lookup, key: c1ccc([C@H]2CN3CCSC3=N2)cc1 [levamisole]
Response given: 63.8

====

- Method: Accelerated stability of levamisole (and its p-bromo analogue) in various buffers; functional amount measured by inhibition of bovine liver AP
- Condition parameters: amp buffer, pH 9.8
Experimental readout: remaining at 216 h, 100 µM (%)
Numbers only, in %.

Challenge: Looking for the measured remaining at 216 h, 100 µM of `Brc1ccc([C@H]2CN3CCSC3=N2)cc1` , can you help?
Response given: 23.9

====

- Method: Accelerated stability of levamisole (and its p-bromo analogue) in various buffers; functional amount measured by inhibition of bovine liver AP
- Condition parameters: carbonate buffer, pH 9.8
- Method: Various buffers were prepared at 100 mM concentrations, containing 1 mM magnesium chloride, and adjusted to pH 9.8. […] (accelerated decomposition study). […] Bovine liver AP was added and the reaction kinetics were followed at 405 nm.
Experimental readout: remaining at 216 h, 100 µM
Please give the number followed by its unit.

Challenge: So what does the record say about remaining at 216 h, 100 µM for `Brc1ccc([C@H]2CN3CCSC3=N2)cc1` ?
Response given: 10.8%

====

- Method: Accelerated stability of levamisole (and its p-bromo analogue) in various buffers; functional amount measured by inhibition of bovine liver AP
- Condition parameters: triethanolamine buffer, pH 9.8
Experimental readout: remaining at 72 h, 100 µM (%)
Give bare numbers, in %.

Challenge: // remaining at 72 h, 100 µM lookup, key: `Brc1ccc([C@H]2CN3CCSC3=N2)cc1`
Response given: 59
